# SUBJECT OF TEST: Human immunodeficiency virus type 1 protease (Human immunodeficiency virus 1)
# ASSAY REMARKS: Inhibition of HIV1 NL4-3 protease expressed in Escherichia coli TAP-106 cells using EDANS/DABCYL-labelled 10-amino acid containing protease cleavage site as substrate preincubated for 1 hr followed by substrate addition and measured for 60 mins by FRET assay
OBSERVATION TYPE: Ki
Field note: include the unit after the figure.

{"SMILES RECORD": "COC(=O)N[C@H](C(=O)N[C@@H](Cc1ccccc1)C[C@H](O)[C@H](Cc1ccccc1)NC(=O)O[C@H]1CO[C@H]2OCC[C@H]21)C(C)(C)C", "SUBJECT OF TEST": "Human immunodeficiency virus type 1 protease (Human immunodeficiency virus 1)", "Ki": "0.013 nM"}
{"SMILES RECORD": "COC(=O)N[C@H](C(=O)N[C@@H](Cc1ccccc1)C[C@H](O)[C@H](Cc1ccccc1)NC(=O)O[C@H]1CO[C@H]2OCC[C@H]21)C1CCCC1", "SUBJECT OF TEST": "Human immunodeficiency virus type 1 protease (Human immunodeficiency virus 1)", "Ki": "0.161 nM"}

So for COC(=O)N[C@H](C(=O)N[C@@H](Cc1ccccc1)[C@@H](O)C[C@H](Cc1ccccc1)NC(=O)O[C@H]1CO[C@H]2OCC[C@H]21)C1CCCC1 , the logged Ki turned out to be 0.235 nM

---

# SUBJECT OF TEST: Protease (Human immunodeficiency virus 1, UniProt Q9YQ12, I84V)
# Sequence (Q9YQ12 entry or part of it I84V): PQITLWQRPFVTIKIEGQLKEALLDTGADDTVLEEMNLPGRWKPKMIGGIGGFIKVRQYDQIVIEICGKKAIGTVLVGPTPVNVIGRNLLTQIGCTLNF
# ASSAY REMARKS: Inhibition of HIV1 NL4-3 protease I84V mutant expressed in Escherichia coli TAP-106 cells using EDANS/DABCYL-labelled 10-amino acid containing protease cleavage site as substrate preincubated for 1 hr followed by substrate addition and measured for 60 mins by FRET assay
log10 Ki by entry:
Parameter value (number): base-10 log of Ki in nM.

Examples from the recorded data:
{"SMILES RECORD": "COC(=O)N[C@H](C(=O)N[C@@H](Cc1ccccc1)[C@@H](O)C[C@H](Cc1ccccc1)NC(=O)O[C@H]1CO[C@H]2OCC[C@H]21)C1CCCC1", "log10 Ki": -0.15}
{"SMILES RECORD": "COC(=O)N[C@H](C(=O)N[C@@H](Cc1ccccc1)[C@@H](O)C[C@H](Cc1ccccc1)NC(=O)O[C@H]1CO[C@H]2OCC[C@H]21)C1CC1", "log10 Ki": 0.26}
{"SMILES RECORD": "COC(=O)NC1(C(=O)N[C@@H](Cc2ccccc2)C[C@H](O)[C@H](Cc2ccccc2)NC(=O)O[C@H]2CO[C@H]3OCC[C@H]32)CCCC1", "log10 Ki": 2.28}

So, COC(=O)NC1(C(=O)N[C@@H](Cc2ccccc2)[C@@H](O)C[C@H](Cc2ccccc2)NC(=O)O[C@H]2CO[C@H]3OCC[C@H]32)CCCC1 ? Its log10 Ki was 2.37

Lookup result for COC(=O)N[C@H](C(=O)N[C@@H](Cc1ccccc1)[C@@H](O)C[C@H](Cc1ccccc1)NC(=O)O[C@H]1CO[C@H]2OCC[C@H]21)C(C)C ; measured log10 Ki: -0.52

Entry Cc1cccc(C)c1OCC(=O)N[C@@H](Cc1ccccc1)C[C@H](O)[C@H](Cc1ccccc1)NC(=O)O[C@H]1CO[C@H]2OCC[C@H]21 ; log10 Ki = -0.59

For this compound ( CC[C@@H](C)[C@H](NC(=O)OC)C(=O)N[C@@H](Cc1ccccc1)[C@@H](O)C[C@H](Cc1ccccc1)NC(=O)O[C@H]1CO[C@H]2OCC[C@H]21 ), measured log10 Ki is -1.04

---

# SUBJECT OF TEST: Protease (Human immunodeficiency virus 1, UniProt Q9YQ12, A71V/I50V)
# Sequence (Q9YQ12 entry or part of it A71V/I50V): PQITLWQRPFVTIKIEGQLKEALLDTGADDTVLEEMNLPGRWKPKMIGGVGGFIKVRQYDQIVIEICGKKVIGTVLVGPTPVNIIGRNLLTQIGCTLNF
# ASSAY REMARKS: Inhibition of HIV1 NL4-3 protease I50V/A71V mutant expressed in Escherichia coli TAP-106 cells using EDANS/DABCYL-labelled 10-amino acid containing protease cleavage site as substrate preincubated for 1 hr followed by substrate addition and measured for 60 mins by FRET assay
OBSERVATION TYPE: pKi
The meaning of pKi here: minus log10 of the concentration in molar units.

# count of solved cases: 2
{"SMILES RECORD": "COC(=O)N[C@H](C(=O)N[C@@H](Cc1ccccc1)[C@@H](O)C[C@H](Cc1ccccc1)NC(=O)O[C@H]1CO[C@H]2OCC[C@H]21)C1CC1", "pKi": 8.78}
{"SMILES RECORD": "CC[C@H](C)[C@H](NC(=O)OC)C(=O)N[C@@H](Cc1ccccc1)[C@@H](O)C[C@H](Cc1ccccc1)NC(=O)O[C@H]1CO[C@H]2OCC[C@H]21", "pKi": 9.25}

Turning to the following molecule.
# pKi of COC(=O)N[C@H](C(=O)N[C@@H](Cc1ccccc1)C[C@H](O)[C@H](Cc1ccccc1)NC(=O)O[C@H]1CO[C@H]2OCC[C@H]21)C1CCCC1 = 8.86

---

# log10(Ki) per entry
# SUBJECT OF TEST: Human immunodeficiency virus type 1 protease (Human immunodeficiency virus 1, UniProt Q72874)
# ASSAY REMARKS: Inhibition of HIV1 NL4-3 protease expressed in Escherichia coli TAP-106 cells using EDANS/DABCYL-labelled 10-amino acid containing protease cleavage site as substrate preincubated for 1 hr followed by substrate addition and measured for 60 mins by FRET assay
// do not treat as linear: log10 of Ki, unit nM

// solved cases for log10(Ki) follow
{"SMILES RECORD": "Cc1cccc(C)c1OCC(=O)N[C@@H](Cc1ccccc1)[C@@H](O)C[C@H](Cc1ccccc1)NC(=O)O[C@H]1CO[C@H]2OCC[C@H]21", "log10(Ki)": -1.77}
{"SMILES RECORD": "COC(=O)N[C@@H](C)C(=O)N[C@@H](Cc1ccccc1)[C@@H](O)C[C@H](Cc1ccccc1)NC(=O)O[C@H]1CO[C@H]2OCC[C@H]21", "log10(Ki)": -1.72}
{"SMILES RECORD": "COC(=O)N[C@H](C(=O)N[C@@H](Cc1ccccc1)[C@@H](O)C[C@H](Cc1ccccc1)NC(=O)O[C@H]1CO[C@H]2OCC[C@H]21)C(C)(C)C", "log10(Ki)": -1.74}
{"SMILES RECORD": "CC[C@@H](C)[C@H](NC(=O)OC)C(=O)N[C@@H](Cc1ccccc1)[C@@H](O)C[C@H](Cc1ccccc1)NC(=O)O[C@H]1CO[C@H]2OCC[C@H]21", "log10(Ki)": -1.57}
{"SMILES RECORD": "COC(=O)NC1(C(=O)N[C@@H](Cc2ccccc2)[C@@H](O)C[C@H](Cc2ccccc2)NC(=O)O[C@H]2CO[C@H]3OCC[C@H]32)CCCC1", "log10(Ki)": 1.66}

In the following, a different compound is considered.
Lookup result for Cc1cccc(C)c1OCC(=O)N[C@@H](Cc1ccccc1)C[C@H](O)[C@H](Cc1ccccc1)NC(=O)O[C@H]1CO[C@H]2OCC[C@H]21 ; measured log10(Ki): -1.43

---

# SUBJECT OF TEST: Protease (Human immunodeficiency virus 1, UniProt Q9YQ12, A71V/I50V)
# ASSAY REMARKS: Inhibition of HIV1 NL4-3 protease I50V/A71V mutant expressed in Escherichia coli TAP-106 cells using EDANS/DABCYL-labelled 10-amino acid containing protease cleavage site as substrate preincubated for 1 hr followed by substrate addition and measured for 60 mins by FRET assay
OBSERVATION TYPE: log10 of Ki (log10 of the value in nM)
Scale type: logarithmic (base 10). Underlying Ki unit: nM.

The examples below pair each entry with its known result.
{"SMILES RECORD": "COC(=O)NC1(C(=O)N[C@@H](Cc2ccccc2)[C@@H](O)C[C@H](Cc2ccccc2)NC(=O)O[C@H]2CO[C@H]3OCC[C@H]32)CCCC1", "OBSERVED RESULT": 2.68}
{"SMILES RECORD": "COC(=O)N[C@@H](C)C(=O)N[C@@H](Cc1ccccc1)[C@@H](O)C[C@H](Cc1ccccc1)NC(=O)O[C@H]1CO[C@H]2OCC[C@H]21", "OBSERVED RESULT": -1.14}
{"SMILES RECORD": "CC[C@@H](C)[C@H](NC(=O)OC)C(=O)N[C@@H](Cc1ccccc1)[C@@H](O)C[C@H](Cc1ccccc1)NC(=O)O[C@H]1CO[C@H]2OCC[C@H]21", "OBSERVED RESULT": -1.54}
{"SMILES RECORD": "COC(=O)N[C@H](C(=O)N[C@@H](Cc1ccccc1)C[C@H](O)[C@H](Cc1ccccc1)NC(=O)O[C@H]1CO[C@H]2OCC[C@H]21)C(C)(C)C", "OBSERVED RESULT": -1.14}
{"SMILES RECORD": "COC(=O)N[C@H](C(=O)N[C@@H](Cc1ccccc1)[C@@H](O)C[C@H](Cc1ccccc1)NC(=O)O[C@H]1CO[C@H]2OCC[C@H]21)C1CCCC1", "OBSERVED RESULT": 0.37}

With those in mind, consider the next compound.
GET /value?item= Cc1cccc(C)c1OCC(=O)N[C@@H](Cc1ccccc1)[C@@H](O)C[C@H](Cc1ccccc1)NC(=O)O[C@H]1CO[C@H]2OCC[C@H]21 &field=log10 of Ki returns -1.14
